All figures here come from PubChem BioAssay AID2060626.

Test system: 168753-222-R-J1-PDC complex spheroid viability
Experiment: Anticancer human tumor 168753-222-R-J1-PDC patient-derived bladder carcinoma cell line growth inhibition [CLK]
Settings: curve of first compound; second compound 3.16 µM
pIC50: −log10 of the molar value.
METRIC NAME: pIC50

Form entry - test system: 168753-222-R-J1-PDC complex spheroid viability; read-out: pIC50; compound: C=CC(=O)N1CCN(c2nc(=O)n(-c3c(C)ccnc3C(C)C)c3nc(-c4c(O)cccc4F)c(F)cc23)C(C)C1 (stereo not given) + CN1CCN(c2cc(C(=O)Nc3cc4cc(-c5cnn(C)c5)ccc4cn3)ccn2)CC1
> 7.50

Lookup: pIC50 / 168753-222-R-J1-PDC complex spheroid viability / NC(=O)C(=Cn1cnc(-c2cc(C(F)(F)F)cc(C(F)(F)F)c2)n1)c1cncnc1 + CN1CCN(c2cc(C(=O)Nc3cc4cc(-c5cnn(C)c5)ccc4cn3)ccn2)CC1
> 8.02

Provide the documented pIC50 with 168753-222-R-J1-PDC complex spheroid viability as the system for C=C(F)C(=O)N1CCN(c2nc(OCC3CCCN3C)nc3c2CCN(c2cccc4cccc(Cl)c24)C3)CC1CC#N (stereo not given) + CNC(=O)c1ccc(Nc2nc(OC3CCCC3)c3c(-c4ccc5nc(C)oc5c4)c[nH]c3n2)c(OC)c1
> 7.50

// map Cn1ncnc1[C@H]1c2n[nH]c(=O)c3cc(F)cc(c23)N[C@@H]1c1ccc(F)cc1 + CN1CCN(c2cc(C(=O)Nc3cc4cc(-c5cnn(C)c5)ccc4cn3)ccn2)CC1 to recorded pIC50 (system: 168753-222-R-J1-PDC complex spheroid viability)
> 9.50

What measured pIC50 is associated with CC1(C)CCC(CN2CCN(c3ccc(C(=O)NS(=O)(=O)c4ccc(NCC5CCOCC5)c([N+](=O)[O-])c4)c(Oc4cnc5[nH]ccc5c4)c3)CC2)=C(c2ccc(Cl)cc2)C1 + CN1CCN(c2cc(C(=O)Nc3cc4cc(-c5cnn(C)c5)ccc4cn3)ccn2)CC1 on 168753-222-R-J1-PDC complex spheroid viability?
> 7.50

Requested read-out pIC50, target or system 168753-222-R-J1-PDC complex spheroid viability, entry C=CC(=O)Nc1cc(Nc2nccc(-c3cn(C)c4ccccc34)n2)c(OC)cc1N(C)CCN(C)C + CNC(=O)c1ccc(Nc2nc(OC3CCCC3)c3c(-c4ccc5nc(C)oc5c4)c[nH]c3n2)c(OC)c1
> 9.02

Query pIC50 on 168753-222-R-J1-PDC complex spheroid viability for CC(C)CC(NC(=O)C(Cc1ccccc1)NC(=O)c1cnccn1)B(O)O (stereo not given) + CNC(=O)c1ccc(Nc2nc(OC3CCCC3)c3c(-c4ccc5nc(C)oc5c4)c[nH]c3n2)c(OC)c1
> 9.02

168753-222-R-J1-PDC complex spheroid viability / pIC50 / COC1C=CCC(C)C(C)S(=O)(=O)NC(=O)c2ccc3c(c2)N(CC2CCC21)CC1(CCCc2cc(Cl)ccc21)CO3 (stereo not given) + CNC(=O)c1ccc(Nc2nc(OC3CCCC3)c3c(-c4ccc5nc(C)oc5c4)c[nH]c3n2)c(OC)c1 : value?
> 7.50

Form: Entry = Cn1ncnc1[C@H]1c2n[nH]c(=O)c3cc(F)cc(c23)N[C@@H]1c1ccc(F)cc1 + CNC(=O)c1ccc(Nc2nc(OC3CCCC3)c3c(-c4ccc5nc(C)oc5c4)c[nH]c3n2)c(OC)c1 | System = 168753-222-R-J1-PDC complex spheroid viability | pIC50 = ____
> 9.50

Recall the recorded pIC50 for O=c1[nH]cc(F)c(=O)[nH]1 + CNC(=O)c1ccc(Nc2nc(OC3CCCC3)c3c(-c4ccc5nc(C)oc5c4)c[nH]c3n2)c(OC)c1 with 168753-222-R-J1-PDC complex spheroid viability and state it.
> 7.50

* * *

System: 168753-222-R-J1-PDC complex spheroid viability
Assay: Anticancer human tumor 168753-222-R-J1-PDC cell line growth inhibition [CLK];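 also: viability measured after seven days of drug exposure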;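 as to viability, T/C: luminescence signal used as surrogate for viable cell amount; 100% = DMSO vehicle control wells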
Conditions: second compound 10 µM; first compound 0.00949 µM; stronger effect = lower value
Exercise: state measured viability, T/C for each of the molecules provided.

Requested read-out: viability, T/C. Entry: CC(C)CC(NC(=O)C(Cc1ccccc1)NC(=O)c1cnccn1)B(O)O (stereo unspecified) + CNC(=O)c1ccc(Nc2nc(OC3CCCC3)c3c(-c4ccc5nc(C)oc5c4)c[nH]c3n2)c(OC)c1
0.38%

I have this molecule here, CC(C)CC(NC(=O)C(Cc1ccccc1)NC(=O)c1cnccn1)B(O)O (stereo unspecified) + CN1CCN(c2cc(C(=O)Nc3cc4cc(-c5cnn(C)c5)ccc4cn3)ccn2)CC1 , and I need its recorded viability, T/C.
0.23%

Given the molecule C=CC(=O)Nc1cc(Nc2nccc(-c3cn(C)c4ccccc34)n2)c(OC)cc1N(C)CCN(C)C + CN1CCN(c2cc(C(=O)Nc3cc4cc(-c5cnn(C)c5)ccc4cn3)ccn2)CC1 , what is its reported viability, T/C?
0.5%

Quick check: viability, T/C of NC(=O)C(=Cn1cnc(-c2cc(C(F)(F)F)cc(C(F)(F)F)c2)n1)c1cncnc1 + CN1CCN(c2cc(C(=O)Nc3cc4cc(-c5cnn(C)c5)ccc4cn3)ccn2)CC1 ?
0.87%

Recorded viability, T/C of NC(=O)C(=Cn1cnc(-c2cc(C(F)(F)F)cc(C(F)(F)F)c2)n1)c1cncnc1 + CNC(=O)c1ccc(Nc2nc(OC3CCCC3)c3c(-c4ccc5nc(C)oc5c4)c[nH]c3n2)c(OC)c1 , please.
15.3%

Recorded viability, T/C of C=CC(=O)Nc1cc(Nc2nccc(-c3cn(C)c4ccccc34)n2)c(OC)cc1N(C)CCN(C)C + CNC(=O)c1ccc(Nc2nc(OC3CCCC3)c3c(-c4ccc5nc(C)oc5c4)c[nH]c3n2)c(OC)c1 , please.
18.5%

* * *

System: 168753-222-R-J1-PDC complex spheroid viability
Experiment: Anticancer human tumor 168753-222-R-J1-PDC cell line growth inhibition [CLK]; active = viability on the fitted dose curve at most 10% of control; inactive = the rest;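 also: viability measured after seven days of drug exposure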
Settings: second compound 0.1 µM; first compound 10 µM
Select the matching outcome among active, inactive

Could you please tell me the result logged for COc1cccc2c1C(=O)c1c(O)c3c(c(O)c1C2=O)CC(O)(C(=O)CO)CC3OC1CC(N)C(O)C(C)O1 (stereo not given) + CNC(=O)c1ccc(Nc2nc(OC3CCCC3)c3c(-c4ccc5nc(C)oc5c4)c[nH]c3n2)c(OC)c1 in this assay?
active

What outcome does the record of this test show for C=CC(=O)N1CCN(c2nc(=O)n(-c3c(C)ccnc3C(C)C)c3nc(-c4c(O)cccc4F)c(F)cc23)C(C)C1 (stereo not given) + CNC(=O)c1ccc(Nc2nc(OC3CCCC3)c3c(-c4ccc5nc(C)oc5c4)c[nH]c3n2)c(OC)c1 ?
inactive

What outcome does the record of this test show for CCCS(=O)(=O)Nc1ccc(F)c(C(=O)c2c[nH]c3ncc(-c4ccc(Cl)cc4)cc23)c1F + CNC(=O)c1ccc(Nc2nc(OC3CCCC3)c3c(-c4ccc5nc(C)oc5c4)c[nH]c3n2)c(OC)c1 ?
inactive

Would you mind telling me which call this test gave CC(=O)O[C@H]1C(=O)[C@@]2(C)[C@H]([C@H](OC(=O)c3ccccc3)[C@]3(O)C[C@H](OC(=O)[C@H](O)[C@@H](NC(=O)c4ccccc4)c4ccccc4)C(C)=C1C3(C)C)[C@]1(OC(C)=O)CO[C@@H]1C[C@@H]2O + CN1CCN(c2cc(C(=O)Nc3cc4cc(-c5cnn(C)c5)ccc4cn3)ccn2)CC1 ?
inactive

Answer briefly: the call reported for CC1COCCN1c1cc(C2(S(C)(=N)=O)CC2)nc(-c2ccnc3[nH]ccc23)n1 (stereo not given) + CNC(=O)c1ccc(Nc2nc(OC3CCCC3)c3c(-c4ccc5nc(C)oc5c4)c[nH]c3n2)c(OC)c1 in this assay.
inactive

// param item: Nc1ccccc1NC(=O)c1ccc(CNC(=O)OCc2cccnc2)cc1 + CN1CCN(c2cc(C(=O)Nc3cc4cc(-c5cnn(C)c5)ccc4cn3)ccn2)CC1 ; yields the recorded call
active

Hi, do you know how O=c1[nH]cc(F)c(=O)[nH]1 + CNC(=O)c1ccc(Nc2nc(OC3CCCC3)c3c(-c4ccc5nc(C)oc5c4)c[nH]c3n2)c(OC)c1 came out in this test?
inactive

Called result for COC1C=CCC(C)C(C)S(=O)(=O)NC(=O)c2ccc3c(c2)N(CC2CCC21)CC1(CCCc2cc(Cl)ccc21)CO3 (stereo not given) + CNC(=O)c1ccc(Nc2nc(OC3CCCC3)c3c(-c4ccc5nc(C)oc5c4)c[nH]c3n2)c(OC)c1
inactive

# fetch the recorded call for C#Cc1c(F)ccc2cc(O)cc(-c3ncc4c(N5CC6CCC(C5)N6)nc(OCC56CCCN5CC(F)C6)nc4c3F)c12 (stereo not given) + CNC(=O)c1ccc(Nc2nc(OC3CCCC3)c3c(-c4ccc5nc(C)oc5c4)c[nH]c3n2)c(OC)c1 here
inactive

# lookup: test call for CC(CO)NC(=O)c1cc(-c2ccc(Cl)cc2)nn(-c2cnn(C)c2)c1=O (stereo not given) + CN1CCN(c2cc(C(=O)Nc3cc4cc(-c5cnn(C)c5)ccc4cn3)ccn2)CC1
inactive
